Test: Cytotoxicity (CC50) against Hela cells for 3 d
Assay type: cell-based
Details: human
Readout Type: CC50 at 3 d (µM)

Cc1cc(Nc2ccccc2)nc(Nc2ccc(NC(=O)c3ccc(Cl)cc3)cc2)n1	7
Cc1nc(Nc2ccc(NC(=O)c3ccco3)cc2)cc(N2CCCCC2)n1	54
Cc1ccc(Nc2cc(C)nc(Nc3ccc(NC(=O)c4ccco4)cc3)n2)cc1	5.8
Cc1ccc(Nc2nc(C)cc(Nc3ccc(NS(=O)(=O)c4ccccc4)cc3)n2)cc1	11
Cc1ccc(Nc2cc(Nc3ccc(NC(=O)c4ccco4)cc3)nc(C)n2)cc1	21
CCNc1cc(Nc2ccc(NC(=O)c3ccco3)cc2)nc(C)n1	29

---

Tested on: AD169^R CMV virus
Assay: Plaque reduction (dissemination) assay, prophylactic treatment
Format: cell-based, Human cytomegalovirus
Conditions: Human betaherpesvirus 5, AD169, ARPE-19, read-out: IC50 of virus plaque reduction
pIC50: −log10 of the molar value.
Readout Type: pIC50

Cc1nc(Nc2cccc(NC(=O)c3ccco3)c2)cc(N2CCCCC2)n1 [MBXC-4336]	5.77
Cc1nc(Nc2ccc(NC(=O)c3ccco3)cc2)cc(N2CCCC2)n1 [MBX-4992]	5.19

---

System: HSV-2 G
Assay: Herpes virus panel neutralization, HSV-2
Type: cell-based, Herpes simplex virus 2
Conditions: Human alphaherpesvirus 2
Readout Type: IC50

Cc1nc(Nc2ccc(NC(=O)c3ccco3)cc2)cc(N2CCCC2)n1 [MBX-4992]	> 150 µM

---

Test system: HHV-8 BCBL-1
Test: Herpes virus panel neutralization, HHV-8
Assay type: cell-based, Human herpes virus 8
Settings: Homo sapiens, BCBL1
pIC50: −log10 of the molar value.
Readout Type: pIC50

Cc1nc(Nc2ccc(NC(=O)c3ccco3)cc2)cc(N2CCCC2)n1 [MBX-4992]	5.00

---

Test system: CMV strains AD169^R and TB40/E
Assay: CMV infection assay, strains AD169^R and TB40/E together
Format: cell-based, Human cytomegalovirus
Conditions: Human betaherpesvirus 5, AD169, read-out: IC50 values ranging
pIC50: −log10 of the molar value.
Readout Type: pIC50

Cc1nc(Nc2ccc(NC(=O)c3ccco3)cc2)cc(N2CCCC2)n1	5.32 to 5.72

---

Target: CYP3A4 (Homo sapiens)
Sequence (P08684 whole entry, species assumed): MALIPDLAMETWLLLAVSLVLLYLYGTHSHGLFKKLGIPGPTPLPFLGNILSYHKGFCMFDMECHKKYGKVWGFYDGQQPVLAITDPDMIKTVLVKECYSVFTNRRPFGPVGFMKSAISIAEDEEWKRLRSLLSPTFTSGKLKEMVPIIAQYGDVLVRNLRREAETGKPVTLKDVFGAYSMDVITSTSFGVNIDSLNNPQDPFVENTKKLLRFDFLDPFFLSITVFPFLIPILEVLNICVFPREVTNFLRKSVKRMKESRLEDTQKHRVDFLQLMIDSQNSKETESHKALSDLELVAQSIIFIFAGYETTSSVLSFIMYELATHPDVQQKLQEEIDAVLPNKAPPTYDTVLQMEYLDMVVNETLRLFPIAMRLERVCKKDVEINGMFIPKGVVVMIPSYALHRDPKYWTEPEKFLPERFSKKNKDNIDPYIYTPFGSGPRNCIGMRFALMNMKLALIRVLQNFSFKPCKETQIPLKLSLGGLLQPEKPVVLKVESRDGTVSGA
Assay: CYP3A4 inhibition at 10 μM
Format: in vitro ADME
Details: % inhibition of CYP3A4 at 10 μM
Readout Type: CYP

Cc1nc(Nc2ccc(NC(=O)c3ccco3)cc2)cc(N(C)C)n1	18%
Cc1nc(Nc2ccc(NC(=O)c3ccco3)cc2)cc(N2CCCC2)n1	<10%
Cc1ccc(Nc2nc(C)cc(Nc3ccc(NC(=O)c4ccco4)cc3)n2)cc1	< 10%
Cc1ccc(Nc2cc(Nc3ccc(NC(=O)c4ccco4)cc3)nc(C)n2)cc1	<10%
Cc1nc(Nc2ccc(NC(=O)c3ccco3)cc2)cc(-n2cccn2)n1	<10%
Cc1nc(Nc2ccc(NC(=O)c3ccco3)cc2)cc(N2CCCCC2)n1	<10%
Cc1ccc(Nc2cc(C)nc(Nc3ccc(NC(=O)c4ccco4)cc3)n2)cc1	16%
CCNc1cc(Nc2ccc(NC(=O)c3ccco3)cc2)nc(C)n1	50%

---

Test system: AD169^R CMV virus
Experiment: Plaque reduction (dissemination) assay, prophylactic treatment
Format: cell-based, Human cytomegalovirus
Conditions: Human betaherpesvirus 5, AD169, Fibroblast, read-out: IC50 of virus plaque reduction
pIC50: −log10 of the molar value.
Readout Type: pIC50

Cc1nc(Nc2cccc(NC(=O)c3ccco3)c2)cc(N2CCCCC2)n1 [MBXC-4336]	5.40
Cc1nc(Nc2ccc(NC(=O)c3ccco3)cc2)cc(N2CCCC2)n1 [MBX-4992]	4.92
